Activity [%] (efficacy) by entry:
system: Mycosphaerella graminicola; assay: In vivo test Mycosphaerella graminicola (wheat); conditions: Mycosphaerella graminicola on wheat, application rate 500 g/ha, evaluation 21-28 days after inoculation
Your answer is read as %, so omit the unit and give the number.

Below: 7 compounds and their reported Activity [%] (efficacy).
compound | Activity [%] (efficacy) [%]
CC1(C(=O)NCc2ncccn2)CC(c2cc(Cl)cc(Cl)c2)=NO1 (centres unmarked) | 100
Cc1c(CNC(=O)C2(C)CC(c3cc(Cl)cc(Cl)c3)=NO2)cnn1C (centres unmarked) | 75
CC(C)(C)OC(=O)CCNC(=O)C1(C)CC(c2cc(Cl)cc(Cl)c2)=NO1 (centres unmarked) | 98
Cc1cc(Cl)cc(C2=NOC(C)(C(=O)NC(C)C)C2)c1 (centres unmarked) | 97
CC(C)n1cc(CNC(=O)C2(C)CC(c3cc(F)cc(F)c3)=NO2)c(Cl)n1 (centres unmarked) | 88
Cc1cc(CNC(=O)C2(C)CC(c3cc(Cl)cc(Cl)c3)=NO2)no1 (centres unmarked) | 87
Cc1c(NC(=O)C2(C)CC(c3cc(F)cc(F)c3)=NO2)cnn1C (centres unmarked) | 73

Entry CCn1cc(CNC(=O)C2(C)CC(c3cc(Cl)cc(Cl)c3)=NO2)c(Cl)n1 (centres unmarked) has what Activity [%] (efficacy)? 85
